- test.protocol: Stability in human plasma assessed as parent compound remaining at 37 degreeC measured upto 60 mins by HPLC analysis
- Type: ADME, cell-free
- condition.label: read-out: Stability
remaining at 1 h for assorted compounds

Illustrative cases are given below, each with its answer.
Query: Entry O=C1O[C@@H](CO)CN1c1ccc(-c2ccc(/C=N/N3CCOCC3)nc2)c(F)c1 : reported remaining at 1 h = ?
Response: 98.6%

Query: Entry O=C1O[C@@H](CO)CN1c1ccc(-c2ccc(/C=N/N3CCS(=O)(=O)CC3)nc2)c(F)c1 : reported remaining at 1 h = ?
Response: 104%

Query: Entry CC(C)N/N=C/c1ccc(-c2ccc(N3C[C@H](CO)OC3=O)cc2F)cn1 : reported remaining at 1 h = ?
Response: 107%

---
Query: Entry CC(=O)NC[C@H]1CN(c2ccc(N3CCOCC3)c(F)c2)C(=O)O1 [LINEZOLID] : reported remaining at 1 h = ?
Response: 110%

Query: Entry O=C1O[C@@H](CO)CN1c1ccc(-c2ccc(/C=N/N3CCCCC3)nc2)c(F)c1 : reported remaining at 1 h = ?
Response: 118%
